Akt2 (Homo sapiens, UniProt P31751) pIC50 data
Sequence (P31751 whole entry): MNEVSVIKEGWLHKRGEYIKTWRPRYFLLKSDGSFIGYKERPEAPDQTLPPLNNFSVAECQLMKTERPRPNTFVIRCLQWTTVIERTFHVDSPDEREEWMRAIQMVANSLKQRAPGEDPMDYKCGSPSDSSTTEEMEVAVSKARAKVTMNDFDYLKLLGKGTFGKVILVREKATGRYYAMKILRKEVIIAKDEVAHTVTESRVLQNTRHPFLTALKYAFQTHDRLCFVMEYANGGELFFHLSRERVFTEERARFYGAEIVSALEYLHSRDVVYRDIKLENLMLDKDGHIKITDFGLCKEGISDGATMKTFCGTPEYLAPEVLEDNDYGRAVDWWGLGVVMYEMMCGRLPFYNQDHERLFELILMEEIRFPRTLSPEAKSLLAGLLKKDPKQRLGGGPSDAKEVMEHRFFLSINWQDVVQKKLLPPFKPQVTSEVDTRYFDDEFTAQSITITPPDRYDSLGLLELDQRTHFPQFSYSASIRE
pIC50: −log10 of the molar value.
measure_name: pIC50

>>> meas_value("NC[C@H](Cc1ccccc1F)NC(=O)c1cc2c(s1)CCCn1ncc(Cl)c1-2")
7.00
>>> meas_value("NC[C@H](Cc1ccc(F)c(F)c1)NC(=O)c1cc2c(s1)CCCn1ncc(Br)c1-2")
8.10
>>> meas_value("Cc1cnn2c1-c1cc(C(=O)N[C@H](CN)Cc3ccc(F)c(F)c3)sc1OCC2")
7.12

----------
Target: Akt3 (Homo sapiens)
Sequence (Q9Y243 whole entry): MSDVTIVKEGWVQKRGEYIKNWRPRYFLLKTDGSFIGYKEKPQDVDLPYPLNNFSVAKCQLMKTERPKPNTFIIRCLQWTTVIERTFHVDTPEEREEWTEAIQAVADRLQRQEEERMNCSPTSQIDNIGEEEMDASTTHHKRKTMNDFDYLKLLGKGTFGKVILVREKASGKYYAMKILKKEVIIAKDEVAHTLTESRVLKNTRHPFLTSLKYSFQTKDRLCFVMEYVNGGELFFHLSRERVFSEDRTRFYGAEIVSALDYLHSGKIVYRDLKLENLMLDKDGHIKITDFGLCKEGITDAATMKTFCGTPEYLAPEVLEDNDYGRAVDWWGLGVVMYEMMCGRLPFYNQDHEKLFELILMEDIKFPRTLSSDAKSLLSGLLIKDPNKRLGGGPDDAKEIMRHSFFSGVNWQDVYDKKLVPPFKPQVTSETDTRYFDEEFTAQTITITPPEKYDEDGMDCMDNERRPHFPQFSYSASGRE
Here, each record is paired with measured IC50 data.
measure_name: IC50

>>> meas_value("NC[C@H](Cc1ccccn1)NC(=O)c1cc2c(s1)CCCn1ncc(Br)c1-2")
"374 nM"
>>> meas_value("NC[C@H](Cc1cccc(F)c1)NC(=O)c1cc2n(n1)CCCn1ncc(Cl)c1-2")
"195 nM"
>>> meas_value("NC[C@H](Cc1cccc(Cl)c1)NC(=O)c1cc2c(s1)CCCn1ncc(Cl)c1-2")
"40 nM"
>>> meas_value("NC[C@H](Cc1cccc(F)c1)NC(=O)c1cc2c(s1)CCCn1ncc(Br)c1-2")
"34 nM"
>>> meas_value("NC[C@H](Cc1cccc(F)c1)NC(=O)c1cc2c(s1)CCCn1ncc(-c3cccnc3)c1-2")
"398 nM"
>>> meas_value("NC[C@H](Cc1cc(F)ccc1F)NC(=O)c1cc2c(s1)CCCn1ncc(Br)c1-2")
"41 nM"
>>> meas_value("NC[C@H](Cc1cccc(F)c1)NC(=O)c1cc2c(s1)CCCn1ncc(F)c1-2")
"286 nM"
>>> meas_value("NC[C@H](Cc1cc(F)cc(F)c1)NC(=O)c1cc2c(s1)OCCn1ncc(Br)c1-2")
"57 nM"
>>> meas_value("CCc1cnn2c1-c1cc(C(=O)N[C@H](CN)Cc3cccc(F)c3)sc1CCC2")
"83 nM"
>>> meas_value("NC[C@H](Cc1ccccc1C(F)(F)F)NC(=O)c1cc2c(s1)CCCn1ncc(Cl)c1-2")
"29 nM"
>>> meas_value("NC[C@H](Cc1cccc(C(F)(F)F)c1)NC(=O)c1cc2c(s1)CCCn1ncc(Cl)c1-2")
"80 nM"
>>> meas_value("NCC(CCc1ccccc1)NC(=O)c1cc2c(s1)CCCn1ncc(Cl)c1-2 (stereo not drawn)")
"783 nM"
